experiment: 14C assay with IPTG-induced recombinant E. coli cells: 14CO2 captured from [14C]-carboxyl-labeled dicamba; settings: induced recombinant E. coli cells, [14C]-carboxyl-labeled dicamba, 14CO2 capture
value_kind: Dicamba Decarboxylase Activity

Completed entries (count: 6):
molecule	Dicamba Decarboxylase Activity
86 (protein, listed as Sphingopyxis alaskensis) MALGASVASREASAQMAKAPMRKIATEEAFATPELAKAWLEIARSEPNSSLDIPTGILSIFDNPRPGSNQDRFRRQLLDVDAERIRDMDEAGVDMQLLSVTIPGVQIFEPARAGELAVTTNDHLAAAIARRPTRFAGLACFAPHDPVQATREMERAVNALGLKGFIVNSHTQDLYLDDPRFAPVLEAAQSLDCPIYLHPRAPSNGMAAPFRDYSMGGSIWGFGVEAGTHAVRMILSGVFDRYPRLRIVLGHMGEALPFWMWRLDHMAARRAKDGRMKPLSLAPSEYFKRNFAVTTSGFESPDVLDLVIKVAGIENIMWAIDYPYESSRDAVTFIEGADLTASQRASIFHRNAVRHFRLS	Low
42 (protein, Agrobacterium radiobacter) MAQGKIALEEHFAIPDTLQDSAGFVPGDYWKELSARLLDIHEQRLMQMDAYGIEKMILSLNAPAVQAIPDKAKALEISRRANDFLAEQCARNPDRFLGFAALPLQDPDAATAELQRCVKTLGFVGALVNGFSQEGDGVTPLYYDLPQYRGFWAEVEKLAVPFYLHPRNPLPQDSRIYAGHPWLMGPTWAFAQETAVHALRLVGSGLFDDHPALRIILGHMGEGLPYMMWRIDNRNAWVKVAPNYPAKRRIADYFNENFYITTSGNFRTQSLVDAMLEIGADRILFSTDWPFENIDHASDWFDTATISEADRLKIGRTNAATLFNLES	Low
87 (protein, listed as Novosphingobium sp.) MASDIATAADLQTGGRQGYLRIATEEAFATRDQIDVYLRMVRDGTADRGMTSLWGFYAQSPSARATQIIERLLDLGEQRLADMDAAGIDKAVLALTSPGVQPLLDMEEARRIAGNANDRLAERCAAHPDRFIGMTAVAPQDPQWSAREILRGATQLGFKGVQINSHTQGRYLDEPFFDPIFRALGDVGQPLYIHPGTPPDSMIGPLLDAGLDGAIYGFGVETGMHLLRLITAGIFDRYPDLQIMVGHMGEALPYWLYRLDYMHQAGIRSQRYERMRPLKRTIAGYFRSNVLVTCSGMAWEPAIQFARQVMGEDRVMYAMDYPYQYEADEVRALDVMDLSPESKRKFFQTNAERWFDL	High
89 (protein, listed as Erwinia billingiae) MATNRRDFLKNATAVMAGSTVFAGSSHFASAAAVEPAAVQPPRRIIALEEHFMLPEFVGYLHETQQNLRNGLVDKVVTPLSDFGKGRLEIMDKNGVDFAVLSLSGPGVQAEPDRVKAVRLARYANDKLATEMQKNPRRYGGFAHLAMQDPLAAANELERCVKQLHMQGGMINGETDGLYLDDRRYDVFWERVEALNVPIYIHPGNPPDYPHMFAGHPEMWGPVWSWAVETCSHALRLIFSGTFDRYPGARVILGHMGETLPIQLWRLDSRYQIANQTFAIKHPPSWYAKKNITITTSGVCNDAALRCALDSMGSENVMFSIDYPFESTEIAVNWLKTANITEQERNAVAWGNATSILRLGA	High
53 (protein, listed as Granulicella tundricola) MARTITLEEHFVTDSFLRATGAYDKPAPPWLAQLQPKLLDLGDGRIAAMDEAGIDLQVLSLAALGFDALDAATATPLVHDINDELAAAVRANPTRLAAFASLALKDPQSAARELERAIQKLGFRGVLLDGTTDGLFLDDPRFTPVFEAAVALNVPIYLHPAPPPESVFDTYFTGLPEGVGQMLSIAGWGWHAETALHTLRLITNGVFDRYPTLQLIIGHMGEMLPMALARTSKALSHAARLRQPVAAYFQSNIHLTTSGYFTQPPLRCALDVVGIDRLMFSIDYPFSANTLGRDYLTELEQTLTPEDLAKLIHRNAESLLNLS	High
80 (protein, listed as Cordyceps militaris) MAAASTPVVVDIHTHMYPPSYIAMLEKRQTIPLVRTFPQADEPRLILLSSELAALDAALADPAAKLPGRPLSTHFASLAQKMHFMDTNGIRVSVISLANPWFDFLAPDEAPGIADAVNAEFSDMCAQHVGRLFFFAALPLSAPVDAVKASIERVKNLKYCRGIILGTSGLGKGLDDPHLLPVFEAVADAKLLVFLHPHYGLPNEVYGPRSEEYGHVLPLALGFPMETTIAVARMYMAGVFDHVRNLQMLLAHSGGTLPFLAGRIESCIVHDGHLVKTGKVPKDRRTIWTVLKEQIYLDAVIYSEVGLQAAIASSGADRLMFGTDHPFFPPIEEDVQGPWDSSRLNAQAVIKAVGEGSSDAAAVMGLNAVRVLSLKAE	Low

response.value for 4 (protein, listed as Lactobacillus buchneri) MAKVITLEEHFSSQKLGQKMAEVLPKRPIGNVSPKMQDYMQRSLPPEAELEDVTGSRIQWMDQHQISMQILSYGNQNPQNSDPKFAVELTKLANDELAKAVAKAPDRFRAFASLPVSHPTDAAAELKRGVEELGFKGAMLVRPTSQAHPFFDDPFYLPIFEAAANLNVPVYLHPSFPDSQIIDYYYSNGPWDDKVSGILGTAGYGWHTDVGIQTVRLLLSGVFEKYPNLKLISGHWGEFASFALERMDQVMYPETNLSEPISKIYRDHVYVTPSGILTEPQLKFVKDEVGIEHLLYSIDYPYIKPENSGSFIESSPLTDEEKELFAHGNAEKLLQL (field: Dicamba Decarboxylase Activity) = High
